System: Aorta
Test: Vasorelaxant activity in rat aortic ring assessed as inhibition of phenylephrine-induced contraction relative to control
Assay type: functional
Quantity name: Emax

Previously resolved entries follow.
Compound | Quantity name | Measured
CC(C)=CCc1c(O)cc(O)c2c(=O)cc(-c3ccc(O)c(O)c3)oc12 | Emax | 62.5%
COc1cc([C@@H]2CC(=O)c3c(O)cc(O)cc3O2)ccc1O (racemic) [HOMOERIODICTYOL] | Emax | 74.9%
CC(C)=CCc1c(O)cc(O)c(C(=O)/C=C/c2ccc(O)cc2)c1O [DEMETHYLXANTHOHUMOL] | Emax | 81.4%
CC(C)=CCc1c(O)cc(O)c2c1O/C(=C\c1ccc(O)cc1O)C2=O | Emax | 30.5%
CC(C)=CCc1c(O)cc(O)c2c1O/C(=C\c1ccc(O)cc1)C2=O | Emax | 74.5%
O=c1c(O)c(-c2ccc(O)c(O)c2)oc2cc(O)cc(O)c12 [QUERCETIN] | Emax | 91.3%
CC(C)=CCc1c(O)cc(O)c2c1OC(c1ccc(O)cc1O)CC2=O (racemic) | Emax | 94.9%
COc1cc(C2CC(=O)c3c(O)cc(O)c(CC=C(C)C)c3O2)cc(OC)c1OC (stereo unspecified) | Emax | 66.3%
CC(C)=CCc1c(O)cc(O)c2c1OC(c1ccc(O)cc1)CC2=O (stereo unspecified) [SOPHORAFLAVANONE B] | Emax | 101%
CC(C)=CCc1c(O)cc(O)c2c1OC(c1ccc(O)c(O)c1O)CC2=O (stereo unspecified) | Emax | 69.7%

Next compound, Emax to be filled in.
## Input For Aorta, provide Emax of `CC(C)=CCc1c(O)cc(O)c2c(=O)cc(-c3ccc(O)cc3O)oc12` please.
## Output 91.5%

###

Test system: Aorta
Experiment: Vasorelaxant activity in rat aortic ring assessed as inhibition of phenylephrine-induced contraction
Assay type: functional, tissue-based
Quantity name: EC50
Answer format reminder: number followed by unit.

Previously resolved entries follow.
Compound | EC50
CC(C)=CCc1c(O)cc(O)c2c(=O)cc(-c3ccc(O)cc3O)oc12 | 176 µM
COc1cc(C2CC(=O)c3c(O)cc(O)c(CC=C(C)C)c3O2)cc(OC)c1OC (stereo unspecified) | 25 µM
CC(C)=CCc1c(O)cc(O)c(C(=O)/C=C/c2ccc(O)cc2)c1O | 8.5 µM
CC(C)=CCc1c(O)cc(O)c2c1OC(c1ccc(O)cc1O)CC2=O (racemic) | 9.3 µM
COc1cc([C@@H]2CC(=O)c3c(O)cc(O)cc3O2)ccc1O (racemic) | 82 µM

Next compound, EC50 to be filled in.
## Input For Aorta, provide EC50 of CC(C)=CCc1c(O)cc(O)c2c1OC(c1ccc(O)cc1)CC2=O (stereo unspecified) please.
## Output 72.7 µM

###

System: PC-12
Assay: Neuroprotective activity against oxygen-glucose deprivation-induced cell injury in rat PC12 cells assessed as cell viability at 1 uM
Assay type: functional
Conditions: read-out: Activity
Reported viability at 1 µM values for the following molecules.
Please give a number only; it is taken to be in %.

Previously resolved entries follow.
Molecule | Measurement units | viability at 1 µM
CC(C)=CCc1c(O)cc(O)c2c(=O)cc(-c3ccc(O)c(O)c3)oc12 | % | 91.5
CC(C)=CCc1c(O)cc(O)c2c1OC(c1ccc(O)c(O)c1O)CC2=O (stereo not given) | % | 90.3
COc1cc(C2CC(=O)c3c(O)cc(O)c(CC=C(C)C)c3O2)ccc1O (stereo not given) | % | 94
CC(C)=CCc1c(O)cc(O)c2c(=O)cc(-c3ccc(O)cc3O)oc12 | % | 93.5

## Input For PC-12, provide viability at 1 µM of COc1cc(C2CC(=O)c3c(O)cc(O)c(CC=C(C)C)c3O2)cc(OC)c1OC (stereo not given) please.
## Output 89.1

## Input Moving on to CC(C)=CCc1c(O)cc(O)c2c1OC(c1ccc(O)cc1O)CC2=O (racemic)
## Output 94.8

## Input Moving on to COc1cc([C@@H]2CC(=O)c3c(O)cc(O)cc3O2)ccc1O (racemic)
## Output 89.1

## Input Moving on to `CC(C)=CCc1c(O)cc(O)c(C(=O)/C=C/c2ccc(O)cc2)c1O`
## Output 86.7

## Input Moving on to CC(C)=CCc1c(O)cc(O)c2c1OC(c1cccc(Br)c1)CC2=O (stereo not given)
## Output 88.1

## Input Moving on to `CC(C)=CCc1c(O)cc(O)c2c1O/C(=C\c1ccc(O)cc1O)C2=O`
## Output 90.4
